Cited source for all entries: patent EP1083873B1

# system_tested: FKBP12 (Homo sapiens)
# Sequence (P62942 whole entry, species assumed): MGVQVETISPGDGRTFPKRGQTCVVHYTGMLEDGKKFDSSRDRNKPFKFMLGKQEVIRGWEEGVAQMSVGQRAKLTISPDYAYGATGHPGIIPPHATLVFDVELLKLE
# test_name: Ki test procedure: inhibition of peptidyl-prolyl isomerase (rotamase) activity, chymotrypsin-coupled assay
# Assay type: biochemical
# note: boundary value 200 nM maps to No; Ki below it maps to Yes

CCC(C)(C)C(=O)C(=O)N1CCCCC1C(=O)SCCCc1ccccc1 (stereo not shown) [Compound 60]
Yes
CCC(C)(C)C(=O)C(=O)N1CCC[C@H]1C(=O)SCCCc1cccc(F)c1 [Compound 58]
Yes
O=C(C(=O)N1CCC[C@H]1C(=O)SCCc1ccccc1)C1CCCCC1 [Compound 12]
No
CCC(C)(C)C(=O)C(=O)N1CCCCC1C(=O)SCCCc1cccc(F)c1 (stereo not shown) [Compound 64]
Yes
O=C(C(=O)N1CCCCC1C(=O)SCCc1ccccc1)c1ccccc1 (stereo not shown) [Compound 14]
No
CCC(C)(C)C(=O)C(=O)N1CCCC1C(=O)SCCCC(c1ccc(F)cc1)c1ccc(F)cc1 (stereo not shown) [Compound 46]
No

Now turn to the next molecule.
(Q) Field: below-cutoff. Rule: recorded Ki strictly less than 200 nM. Subject: O=C(C(=O)N1CCC[C@H]1C(=O)SCCCc1cccnc1)C1CCCCC1 [Compound 35]
(A) Yes
